biological target: YTHDF2 (Homo sapiens); experiment: DNA-fluorescence polarization (FP) competition assay, DF2; assay type: binding
Sequence (Q9Y5A9 whole entry): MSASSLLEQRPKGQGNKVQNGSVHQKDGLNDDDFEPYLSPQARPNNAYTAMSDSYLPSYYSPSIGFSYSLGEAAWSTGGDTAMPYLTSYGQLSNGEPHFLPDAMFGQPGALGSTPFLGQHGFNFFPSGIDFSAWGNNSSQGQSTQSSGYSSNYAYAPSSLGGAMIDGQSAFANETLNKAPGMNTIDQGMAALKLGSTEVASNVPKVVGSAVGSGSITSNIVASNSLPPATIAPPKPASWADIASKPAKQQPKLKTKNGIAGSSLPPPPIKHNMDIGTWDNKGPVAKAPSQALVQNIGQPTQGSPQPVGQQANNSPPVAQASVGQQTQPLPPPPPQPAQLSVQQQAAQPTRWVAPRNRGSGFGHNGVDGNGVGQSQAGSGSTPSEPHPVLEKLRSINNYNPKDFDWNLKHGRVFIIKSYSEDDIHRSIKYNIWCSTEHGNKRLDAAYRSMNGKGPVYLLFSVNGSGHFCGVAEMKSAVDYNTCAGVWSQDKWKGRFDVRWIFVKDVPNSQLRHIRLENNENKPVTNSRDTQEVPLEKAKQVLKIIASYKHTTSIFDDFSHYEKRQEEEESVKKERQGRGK
measurementLabel: Kd (µM)
Enter your answer as a number in µM; do not include the unit.

Data request: Item O=C(O)c1ccc(-c2csc3[nH]c(=S)[nH]c(=O)c23)cc1 has what recorded Kd?
Data returned: 0.61

Data request: // Kd lookup, key: Cc1c(C(=O)NCc2ccccc2)sc2[nH]c(=S)[nH]c(=O)c12
Data returned: 10

Data request: Quick one: Kd of CCOC(=O)c1ccc(-c2cc3c(=O)[nH]c(=S)[nH]c3s2)cc1 ?
Data returned: 3.1

Data request: Quick one: Kd of NC(=O)c1csc2[nH]c(=S)[nH]c(=O)c12 ?
Data returned: 1.9

Data request: Which Kd is listed for CC(=O)c1sc2[nH]c(=S)[nH]c(=O)c2c1C ?
Data returned: 3.1

###

Molecular target: GST-YTHDF3 (Homo sapiens)
Construct: made in house
Sequence (Q7Z739 1-585): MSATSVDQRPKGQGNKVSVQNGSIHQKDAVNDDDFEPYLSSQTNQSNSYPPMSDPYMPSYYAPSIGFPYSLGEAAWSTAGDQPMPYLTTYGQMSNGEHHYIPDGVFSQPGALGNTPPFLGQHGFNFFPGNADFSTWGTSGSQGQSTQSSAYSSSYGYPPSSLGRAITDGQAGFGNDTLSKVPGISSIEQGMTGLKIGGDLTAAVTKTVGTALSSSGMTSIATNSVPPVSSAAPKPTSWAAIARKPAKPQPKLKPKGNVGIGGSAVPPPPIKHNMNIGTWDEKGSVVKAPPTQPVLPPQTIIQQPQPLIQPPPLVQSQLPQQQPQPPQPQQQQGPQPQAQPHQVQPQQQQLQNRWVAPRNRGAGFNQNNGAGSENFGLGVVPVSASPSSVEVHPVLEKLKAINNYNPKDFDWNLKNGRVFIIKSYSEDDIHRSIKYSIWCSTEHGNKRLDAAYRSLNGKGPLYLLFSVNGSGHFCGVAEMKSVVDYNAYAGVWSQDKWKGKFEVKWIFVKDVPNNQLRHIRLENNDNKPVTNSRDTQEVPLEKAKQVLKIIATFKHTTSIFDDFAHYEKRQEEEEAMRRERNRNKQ
Assay: HTRF-based binding assay, DF3
Conditions: HTRF, 100 µM compound, normalized
What Single-dose residual signal at 100 µM, DF3 was measured for each of the following?
Numeric only. Scale: %

Data request: What does the data say about its Single-dose residual signal at 100 µM, DF3? Entry: O=c1[nH]c(=S)[nH]c2scc(-c3ccc(O)cc3)c12 [Compound 19]
Data returned: 13

Data request: Returns the measured Single-dose residual signal at 100 µM, DF3 for the input compound. Input: COc1ccc(-c2csc3[nH]c(=S)[nH]c(=O)c23)cc1 [Compound S76]
Data returned: 12

Data request: For the compound O=c1[nH]c(=S)[nH]c2scc(-c3ccc(Br)cc3)c12 [Compound S75] , what Single-dose residual signal at 100 µM, DF3 is on record?
Data returned: 8

Data request: Requested read-out: Single-dose residual signal at 100 µM, DF3. Entry: Cc1c(C(=O)NCc2ccccc2)sc2[nH]c(=S)[nH]c(=O)c12 [Compound 22]
Data returned: 18

Data request: Using the record for Cc1c(C(=O)NCCCC(=O)O)sc2[nH]c(=S)[nH]c(=O)c12 [Compound 25] , report its Single-dose residual signal at 100 µM, DF3.
Data returned: 26

Data request: Reported Single-dose residual signal at 100 µM, DF3, compound Cc1c(C(=O)NCc2cccnc2)sc2[nH]c(=S)[nH]c(=O)c12 [Compound 23] : ____
Data returned: 33

Data request: Quick one: Single-dose residual signal at 100 µM, DF3 for Cc1c(-c2ccc(N)cc2)sc2[nH]c(=S)[nH]c(=O)c12 [Compound 27] ?
Data returned: 5

Data request: Quick one: Single-dose residual signal at 100 µM, DF3 of NC(=O)c1csc2[nH]c(=S)[nH]c(=O)c12 [Compound 31] ?
Data returned: 36

Data request: Sample O=c1[nH]c(=S)[nH]c2scc(C3CCCCC3)c12 [Compound S77] — what was its Single-dose residual signal at 100 µM, DF3?
Data returned: 35

Data request: May I ask what Single-dose residual signal at 100 µM, DF3 has been recorded for O=c1[nH]c(=S)[nH]c2sc(Cc3ccccc3)cc12 [Compound S85] ?
Data returned: 35

Data request: Param item = O=c1[nH]c(=S)[nH]c2sccc12 [Compound 14] ; retrieve measured Single-dose residual signal at 100 µM, DF3.
Data returned: 23

Data request: What measured Single-dose residual signal at 100 µM, DF3 goes with Cc1cc2c(=O)[nH]c(=S)[nH]c2s1 [Compound S78] ?
Data returned: 22

Data request: Recorded Single-dose residual signal at 100 µM, DF3 for Cc1c(-c2ccc([N+](=O)[O-])cc2)sc2[nH]c(=S)[nH]c(=O)c12 [Compound 26] , please?
Data returned: 15

Data request: Recorded Single-dose residual signal at 100 µM, DF3 for CCOC(=O)c1sc2[nH]c(=S)[nH]c(=O)c2c1C [Compound 21] , please?
Data returned: 10
